Source listed as ChEMBL document CHEMBL2311253.

Tested on: Muscarinic acetylcholine receptor M1 (Homo sapiens) (UniProt P11229)
Sequence (P11229 whole entry): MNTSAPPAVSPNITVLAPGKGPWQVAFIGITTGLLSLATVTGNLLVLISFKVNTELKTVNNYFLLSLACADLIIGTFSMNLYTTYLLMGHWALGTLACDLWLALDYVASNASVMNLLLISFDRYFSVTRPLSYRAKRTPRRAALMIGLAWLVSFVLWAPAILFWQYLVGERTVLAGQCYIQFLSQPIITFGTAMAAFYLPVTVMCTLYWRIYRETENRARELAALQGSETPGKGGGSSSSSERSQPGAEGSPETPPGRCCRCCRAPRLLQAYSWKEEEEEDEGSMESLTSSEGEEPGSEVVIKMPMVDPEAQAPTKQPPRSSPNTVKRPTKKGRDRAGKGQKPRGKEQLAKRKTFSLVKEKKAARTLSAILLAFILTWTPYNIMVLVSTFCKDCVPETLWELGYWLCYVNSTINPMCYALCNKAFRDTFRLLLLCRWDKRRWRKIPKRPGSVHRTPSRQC
Assay name: Positive allosteric modulator activity at human muscarinic M1 receptor assessed as fold shift of acetylcholine concentration curve to the left at 30 uM by calcium mobilization assay relative to untreated acetylcholine control
Assay type: functional
// fold change (FC) lookup, one value per entry
A bare number is all that is needed in reply.

Illustrative cases are given below, each with its answer.
Cn1cc(-c2ccc(CN3C(=O)C(O)(C(F)(F)F)c4ccccc43)cc2)cn1 (racemic) ... 15.2
Cn1cc(-c2ccc(CN3C(=O)C(O)(C(F)(F)F)c4ccccc43)c(F)c2)cn1 (racemic) ... 7.4
Cn1cc(-c2ccc(CN3C(=O)C(O)(C(F)(F)F)c4ccccc43)c(F)c2)cn1 (stereo in doubt; 23h) ... 12

Field: next compound
Data point: `Cn1cc(-c2ccc(CN3C(=O)Cc4ccccc43)c(F)c2)cn1` ; fold change (FC) = 27.2
